Numbers sourced from patent US20190076400A1.

Target: µ-opioid receptor (MOR), Human-ORPM1 (human, UniProt P35372 1-400)
Sequence (P35372 whole entry): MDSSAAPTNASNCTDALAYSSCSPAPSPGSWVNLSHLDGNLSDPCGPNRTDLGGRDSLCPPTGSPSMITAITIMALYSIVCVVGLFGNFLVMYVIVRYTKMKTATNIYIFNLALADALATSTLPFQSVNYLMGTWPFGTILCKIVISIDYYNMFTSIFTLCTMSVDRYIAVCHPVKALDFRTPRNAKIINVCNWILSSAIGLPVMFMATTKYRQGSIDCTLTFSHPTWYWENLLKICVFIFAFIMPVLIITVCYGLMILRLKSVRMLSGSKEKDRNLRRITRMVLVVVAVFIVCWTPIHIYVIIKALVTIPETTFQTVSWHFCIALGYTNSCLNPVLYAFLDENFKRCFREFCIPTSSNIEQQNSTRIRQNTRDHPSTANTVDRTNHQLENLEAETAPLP
Test: cell-based or functional assay
Numbered stars: 1 amine (or outer) side, 2 acyl side, 3 side chain; on linkers, the order of the positions; unused ones are H or OH. Square brackets hold non-standard residues; d marks the D form. Dmt = Cc1cc(O)cc(C)c1C[C@H](N)C(=O)O; NMeβAla = CN(CCC(=O)[*:2])[*:1]; dTic = O=C(O)[C@H]1Cc2ccccc2CN1; β3hF = N[C@H](CC(=O)O)Cc1ccccc1; Sar = CNCC(=O)O
binders and their reported MOR EC50

H-[Dmt][dA]L[β3hF][Sar]-NH2 (SMILES Cc1cc(O)cc(C)c1C[C@H](N)C(=O)N[C@H](C)C(=O)N[C@@H](CC(C)C)C(=O)N[C@H](CC(=O)N(C)CC(N)=O)Cc1ccccc1) [H-DMT-a-Leu-bhF-Sar-NH2] : ≤ 1 nM

Problem: For the binder H-[Dmt][dR]X[NMeβAla]-OH (not fully specified (residue 3); printed as H-DMT-r-Homo-F-N(Me)bAla-OH) [H-DMT-r-Homo-F-N(Me)bAla-OH] , what MOR EC50 is on record?
Solution: ≤ 1 nM

Problem: For the binder H-[Dmt][dTic]GF[Sar]-NH2 (SMILES Cc1cc(O)cc(C)c1C[C@H](N)C(=O)N1Cc2ccccc2C[C@@H]1C(=O)NCC(=O)N[C@@H](Cc1ccccc1)C(=O)N(C)CC(N)=O) [H-DMT-dTic-G-F-Sar-NH2] , what MOR EC50 is on record?
Solution: ≤ 1 nM
